- TEST_SUMMARY: IANBD-channel fluorescence artefacts in buffer – biochemical, artefact control for cardiac RTF calcium sensitizer project, confirmation (AID 504382)
- STATED_CONDITIONS: IANBD fluorescence interference counterscreen, EC20 Ca2+, at 7.2 µM, scaled: EC20 calcium 0, EC100 calcium 100
The whole screen tested about 2,500 compounds, of which about 460 (18%) were called active.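 How the source made its calls: active means mean activation above a cutoff of low control average plus 3 SD from the earlier screen (cut at about 12% in these data); inactive means the rest.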 The list is a sample of the results.
Would you mind answering with one of these outcomes? True = active, False = inactive

> print(dat)
                                    compound  qualitative.label
 1  CCOc1ccc(NC(=O)/C(C#N)=C\c2ccc(N3CCCC3)c(C)c2)cc1              False
 2  O=C(Nc1ccc(F)cc1)OCCN1CCN(Cc2ccccc2)CCC1=O              False
 3                     Nc1ccc2c3c(cccc13)CC2              False
 4   Cc1cccc(/C=N/n2c(-c3ccncc3)n[nH]c2=S)c1              False
 5  N#C/C(=C(/O)COC(=O)COc1ccc(Cl)cc1)c1nc2ccccc2[nH]1              False
 6  CCC(=O)N(C)CCc1cc2c(c(OC)c1/C=N/NC(=O)c1ccc(Br)cc1)OCO2              False
 7  O=C/C(=C\Nc1ccc(S(=O)(=O)CCO)cc1)c1nc2cc(Cl)ccc2o1               True
 8  Cc1nnc(N2CCOCC2)c2nn(-c3cccc(Cl)c3)c(C)c12              False
 9  Cc1ccc2nc3nc(NCC4CCCO4)c(C(=O)NC4CCCC4)cc3c(=O)n2c1 (configuration not stated)              False
10  NC(=O)NC(=O)COC(=O)c1cccc(NS(=O)(=O)/C=C/c2ccccc2)c1              False

INPUT: Recorded test outcome, item CCNc1cccc2c1C(=O)N(C)C2=O
OUTPUT: False

INPUT: Recorded test outcome, item COC(=O)C1=C(O)/C(=C\c2ccc(CNS(=O)(=O)c3ccc(Cl)cc3)o2)N=C1C
OUTPUT: False

* * *

- TEST_SUMMARY: IANBD-channel fluorescence artefacts in buffer – biochemical, artefact control for cardiac RTF calcium sensitizer project, confirmation (AID 504382)
- STATED_CONDITIONS: IANBD fluorescence interference counterscreen, EC20 Ca2+, at 7.2 µM, scaled: EC20 calcium 0, EC100 calcium 100
The campaign covered roughly 2,500 compounds. About 460 (18%) were called active.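 How the source made its calls: active means mean activation above a cutoff of low control average plus 3 SD from the earlier screen (cut at about 12% in these data); inactive means the rest.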 Only a sample is shown.
Would you mind answering with one of these outcomes? Y (active), N (inactive)

> print(dat)
                           molecule  qualitative.label
1  CCOC(=O)CC1=NS(=O)(=O)c2ccccc2N1                  N

INPUT: Recorded test outcome, item COc1ccc(OC)c(C2=C/C(=C/c3ccccn3)C(=O)O2)c1
OUTPUT: N

INPUT: Recorded test outcome, item O=C(O)c1cc(NCc2ccc(F)cc2)ccc1N1CCOCC1
OUTPUT: Y

INPUT: Recorded test outcome, item Clc1ccccc1/C=N/NC1=Nc2cccc3cccc1c23
OUTPUT: N

INPUT: Recorded test outcome, item O=C(N1CCOCC1)N1CCN(c2ccc(F)cc2)CC1
OUTPUT: N

INPUT: Recorded test outcome, item CC[C@@]1(O)C(=O)OCc2c1cc1n(c2=O)Cc2cc3c(CN(C)C)c(O)ccc3nc2-1
OUTPUT: N

INPUT: Recorded test outcome, item COC(=O)C1=C(C(=O)c2ccc(C)cc2)C(c2ccc(OC)c(OC)c2)n2nnnc2N1 (stereo unspecified)
OUTPUT: N

Values compiled from PubChem BioAssay AID504382.
